test: Equilibrium solubility of OCA in various buffers at 37° C.; type: physicochemical; conditions: aqueous buffer, 37 °C, pH 9, aqueous buffer, thermodynamic from solid, pH 9.0 Alkaline Borate

[
  {
    "Compound": "CC[C@H]1[C@@H](O)[C@@H]2[C@H](CC[C@]3(C)[C@@H]([C@H](C)CCC(=O)O)CC[C@@H]23)[C@@]2(C)CC[C@@H](O)C[C@@H]12 [OCA]",
    "solubility, µg/mL": 462
  }
]

====

assay: Particle size distribution, dry dispersion laser diffraction (Sympatec); format: physicochemical; conditions: Before jet-milling (unmicronized)
Assay Endpoint: Dv (50) (µm)

[
  {
    "Compound": "CC[C@H]1[C@@H](O)[C@@H]2[C@H](CC[C@]3(C)[C@@H]([C@H](C)CCC(=O)O)CC[C@@H]23)[C@@]2(C)CC[C@@H](O)C[C@@H]12 [OCA Example # 2]",
    "Observed Measurement": 19
  },
  {
    "Compound": "CC[C@H]1[C@@H](O)[C@@H]2[C@H](CC[C@]3(C)[C@@H]([C@H](C)CCC(=O)O)CC[C@@H]23)[C@@]2(C)CC[C@@H](O)C[C@@H]12 [OCA Example # 1]",
    "Observed Measurement": 26
  },
  {
    "Compound": "CC[C@H]1[C@@H](O)[C@@H]2[C@H](CC[C@]3(C)[C@@H]([C@H](C)CCC(=O)O)CC[C@@H]23)[C@@]2(C)CC[C@@H](O)C[C@@H]12 [OCA Example # 3]",
    "Observed Measurement": 39
  }
]

====

Dv (50) by entry:
assay: Particle size distribution, dry dispersion laser diffraction (Sympatec); type: physicochemical; details: After jet-milling (micronized)

[
  {
    "Compound": "CC[C@H]1[C@@H](O)[C@@H]2[C@H](CC[C@]3(C)[C@@H]([C@H](C)CCC(=O)O)CC[C@@H]23)[C@@]2(C)CC[C@@H](O)C[C@@H]12 [OCA Example # 3]",
    "Dv (50)": "4.9 µm"
  },
  {
    "Compound": "CC[C@H]1[C@@H](O)[C@@H]2[C@H](CC[C@]3(C)[C@@H]([C@H](C)CCC(=O)O)CC[C@@H]23)[C@@]2(C)CC[C@@H](O)C[C@@H]12 [OCA Example # 2]",
    "Dv (50)": "4.4 µm"
  },
  {
    "Compound": "CC[C@H]1[C@@H](O)[C@@H]2[C@H](CC[C@]3(C)[C@@H]([C@H](C)CCC(=O)O)CC[C@@H]23)[C@@]2(C)CC[C@@H](O)C[C@@H]12 [OCA Example # 1]",
    "Dv (50)": "6.1 µm"
  }
]

====

assay: Solubility of OCA in biologically relevant media at 37° C.; assay type: physicochemical; details: physiologically relevant dissolution media, aqueous buffer; pH 6.8 (proposed dissolution medium, sodium phosphate dibasic), 37° C.
Assay Endpoint: solubility (µg/mL)

[
  {
    "Compound": "CC[C@H]1[C@@H](O)[C@@H]2[C@H](CC[C@]3(C)[C@@H]([C@H](C)CCC(=O)O)CC[C@@H]23)[C@@]2(C)CC[C@@H](O)C[C@@H]12 [OCA]",
    "Assay Endpoint": "solubility",
    "Unit Info": "µg/mL",
    "Observed Measurement": 220
  }
]
